Species on record: Rattus norvegicus
Protocol: Open TG-GATES - Regimen: Daily Repeat
Format: toxicity, organism-based, Sprague-Dawley
Parameters: regimen Daily Repeat, gender Male, age 6 weeks
Condition Notes: in vivo, po, 100 mg/kg, […], tissue Blood, route gavage, dose level Low, time 7 day
Assay Metric: MCH

State the recorded MCH for every item in the following list.
1. CC(=O)[C@@]1(O)CC[C@H]2[C@@H]3C=C(Cl)C4=CC(=O)CC[C@]4(C)[C@H]3CC[C@@]21C [CHLORMADINONE]
2. O=C(O)c1ccccc1Nc1ccccc1 [FENAMIC ACID]
3. CCCCNC(=O)NS(=O)(=O)c1ccc(C)cc1 [TOLBUTAMIDE]
4. CC(S)C(=O)NCC(=O)O (centres undefined) [TIOPRONIN]

1: 20.2 pg; 2: 20.9 pg; 3: 20.4 pg; 4: 20.9 pg

From: ChEMBL document CHEMBL3885861
